We begin with a simple list: items and their reported zone of inhibition at 75 µg/disc.
Test system: Aspergillus niger
Assay: Antifungal activity against Aspergillus niger assessed as zone of inhibition at 75 ug/well after 48 hrs by agar well diffusion method
Format: functional
Settings: read-out: DIZ
Answer in mm, number only, no unit symbol.

1. Cc1ccc(/C=C/S(=O)(=O)NC(=O)c2cccs2)cc1; 8
2. Cc1ccc(-c2onc(-c3ccccc3)c2S(=O)(=O)NC(=O)c2ccc(Cl)s2)cc1; 21

Find the measured zone of inhibition at 75 µg/disc of O=C(NS(=O)(=O)/C=C/c1ccccc1)c1ccc(Cl)s1 and report it.
17

For O=C(NS(=O)(=O)/C=C/c1ccc([N+](=O)[O-])cc1)c1ccc(Cl)s1 , write its zone of inhibition at 75 µg/disc.
29

Quick one: give measured zone of inhibition at 75 µg/disc for CC(=O)N1CCN(c2ccc(OCC3COC(Cn4ccnc4)(c4ccc(Cl)cc4Cl)O3)cc2)CC1 (configuration not stated)
33

Check the records and state zone of inhibition at 75 µg/disc for O=C(NS(=O)(=O)C1C(c2ccccc2)=NN(c2ccccc2)C1c1ccccc1)c1ccc(Cl)s1 (configuration not stated)
11

Identify zone of inhibition at 75 µg/disc associated with the compound O=C(NS(=O)(=O)C1C(c2ccccc2)=NN(c2ccccc2)C1c1ccc([N+](=O)[O-])cc1)c1ccc(Cl)s1 (configuration not stated)
14

All values here come from ChEMBL document CHEMBL4251595.
